Numbers sourced from patent US9321773B2.

- STUDY SYSTEM: recombinant PI3 kinase γ (Homo sapiens (Human), UniProt P48736)
- Sequence (P48736 whole entry): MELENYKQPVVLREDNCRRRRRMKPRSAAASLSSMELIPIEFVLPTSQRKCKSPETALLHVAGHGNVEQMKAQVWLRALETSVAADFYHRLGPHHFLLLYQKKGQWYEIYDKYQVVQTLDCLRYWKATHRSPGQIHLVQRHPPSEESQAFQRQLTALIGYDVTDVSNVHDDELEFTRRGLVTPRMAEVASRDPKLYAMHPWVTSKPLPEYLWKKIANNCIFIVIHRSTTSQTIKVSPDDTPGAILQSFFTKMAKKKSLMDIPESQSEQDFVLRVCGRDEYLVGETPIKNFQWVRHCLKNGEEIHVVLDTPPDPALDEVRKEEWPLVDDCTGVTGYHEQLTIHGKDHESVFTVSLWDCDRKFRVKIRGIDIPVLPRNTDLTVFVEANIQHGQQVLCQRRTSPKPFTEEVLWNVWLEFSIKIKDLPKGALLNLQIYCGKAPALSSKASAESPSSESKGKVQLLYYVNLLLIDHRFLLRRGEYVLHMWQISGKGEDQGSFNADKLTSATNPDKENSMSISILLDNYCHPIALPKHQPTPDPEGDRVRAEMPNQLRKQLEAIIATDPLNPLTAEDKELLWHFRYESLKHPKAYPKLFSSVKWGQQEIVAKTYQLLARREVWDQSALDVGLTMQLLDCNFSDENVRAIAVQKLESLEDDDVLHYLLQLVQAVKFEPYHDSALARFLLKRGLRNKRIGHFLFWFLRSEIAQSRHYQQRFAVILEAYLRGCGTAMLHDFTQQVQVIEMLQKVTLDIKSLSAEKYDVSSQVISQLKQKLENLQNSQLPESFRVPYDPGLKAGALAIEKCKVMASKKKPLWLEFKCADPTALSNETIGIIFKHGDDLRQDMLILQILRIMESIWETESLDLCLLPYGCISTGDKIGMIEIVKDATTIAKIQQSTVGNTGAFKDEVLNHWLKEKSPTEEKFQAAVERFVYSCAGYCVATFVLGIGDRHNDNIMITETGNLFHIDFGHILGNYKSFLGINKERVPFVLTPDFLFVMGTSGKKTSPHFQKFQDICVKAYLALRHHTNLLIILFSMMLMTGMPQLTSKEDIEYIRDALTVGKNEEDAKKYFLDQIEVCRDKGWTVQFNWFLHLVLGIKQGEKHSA
- EXPERIMENT DESCRIPTION: Enzyme Inhibition Assay (HTRF PI3K enzyme assay, TR-FRET)
- Assay type: biochemical
- RUN CONDITIONS: activity range; read-out: PI3 Kinase Inhibition IC50 values at stated Isozyme γ
We begin with a simple list: items and their reported IC50.

In: Query (compound): `C#Cc1cccc2nc(Cn3nc(-c4cccc(O)c4)c4c(N)ncnc43)n(Cc3ccc(S(C)(=O)=O)cc3)c(=O)c12` ; field requested: IC50
Out: 50 to 1000 nM

In: Now consider `C#Cc1cccc2nc(Cn3nc(-c4ccc(O)cc4)c4c(N)ncnc43)n(Cc3ccc(C(F)(F)F)cc3)c(=O)c12` and answer again.
Out: 50 to 1000 nM

Continue with the next compound.
In: Query (compound): `COc1cccc(Cn2c(Cn3nc(-c4ccc(O)cc4)c4c(N)ncnc43)nc3cccc(C#CCCCC(=O)N4CCOCC4)c3c2=O)c1F` ; field requested: IC50
Out: < 50 nM

----------
- STUDY SYSTEM: recombinant PI3 kinase δ (Homo sapiens (Human))
- Sequence (O00329 whole entry): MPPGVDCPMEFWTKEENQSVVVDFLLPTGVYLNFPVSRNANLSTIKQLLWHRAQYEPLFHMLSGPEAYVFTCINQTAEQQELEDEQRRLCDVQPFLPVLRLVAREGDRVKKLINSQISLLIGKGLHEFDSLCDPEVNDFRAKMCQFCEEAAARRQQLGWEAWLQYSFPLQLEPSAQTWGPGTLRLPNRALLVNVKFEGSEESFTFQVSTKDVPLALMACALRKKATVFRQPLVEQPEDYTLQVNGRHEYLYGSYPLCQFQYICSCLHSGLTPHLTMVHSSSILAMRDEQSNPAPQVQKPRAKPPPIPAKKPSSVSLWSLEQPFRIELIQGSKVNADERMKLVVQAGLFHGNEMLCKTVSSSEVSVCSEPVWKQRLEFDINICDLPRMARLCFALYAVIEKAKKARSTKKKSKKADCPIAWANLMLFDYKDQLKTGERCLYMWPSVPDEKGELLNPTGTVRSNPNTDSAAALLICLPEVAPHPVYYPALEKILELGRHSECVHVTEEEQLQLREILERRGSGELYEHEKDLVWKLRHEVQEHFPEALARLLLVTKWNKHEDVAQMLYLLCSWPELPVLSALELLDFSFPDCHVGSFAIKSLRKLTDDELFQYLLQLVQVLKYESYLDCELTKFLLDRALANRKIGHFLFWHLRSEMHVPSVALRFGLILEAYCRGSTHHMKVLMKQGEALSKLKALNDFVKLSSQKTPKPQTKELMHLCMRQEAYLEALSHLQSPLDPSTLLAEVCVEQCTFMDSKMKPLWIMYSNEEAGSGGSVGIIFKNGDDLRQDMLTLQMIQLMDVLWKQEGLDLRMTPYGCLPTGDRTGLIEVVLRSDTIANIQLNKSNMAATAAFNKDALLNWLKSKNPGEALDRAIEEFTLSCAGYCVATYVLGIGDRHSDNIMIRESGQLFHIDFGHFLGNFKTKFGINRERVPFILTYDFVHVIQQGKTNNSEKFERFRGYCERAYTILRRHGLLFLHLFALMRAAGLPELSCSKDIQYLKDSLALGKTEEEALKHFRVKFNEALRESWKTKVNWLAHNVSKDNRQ
- Sequence (P27986 whole entry partner): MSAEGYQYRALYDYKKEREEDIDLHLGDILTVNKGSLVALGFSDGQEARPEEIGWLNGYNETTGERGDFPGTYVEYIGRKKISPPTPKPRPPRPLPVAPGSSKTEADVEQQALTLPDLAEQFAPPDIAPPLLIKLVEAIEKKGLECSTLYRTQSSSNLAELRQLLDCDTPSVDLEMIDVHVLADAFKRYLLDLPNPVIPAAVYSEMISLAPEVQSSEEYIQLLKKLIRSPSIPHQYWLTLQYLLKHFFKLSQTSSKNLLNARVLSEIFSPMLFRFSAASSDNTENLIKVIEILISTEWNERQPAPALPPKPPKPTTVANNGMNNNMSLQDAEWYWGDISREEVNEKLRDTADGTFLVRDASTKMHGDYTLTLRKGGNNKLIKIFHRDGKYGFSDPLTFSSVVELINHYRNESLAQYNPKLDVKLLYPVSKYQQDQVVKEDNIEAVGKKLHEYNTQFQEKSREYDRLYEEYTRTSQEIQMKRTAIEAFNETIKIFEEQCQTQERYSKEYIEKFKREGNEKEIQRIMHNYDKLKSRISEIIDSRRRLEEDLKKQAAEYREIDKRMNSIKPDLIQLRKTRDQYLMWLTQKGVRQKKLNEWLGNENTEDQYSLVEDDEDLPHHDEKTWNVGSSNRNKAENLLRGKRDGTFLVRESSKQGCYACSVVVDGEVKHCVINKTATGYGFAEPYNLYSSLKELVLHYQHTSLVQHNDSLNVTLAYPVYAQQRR
- EXPERIMENT DESCRIPTION: Enzyme Inhibition Assay (HTRF PI3K enzyme assay, TR-FRET)
- Assay type: biochemical
- RUN CONDITIONS: read-out: PI3 Kinase Inhibition IC50 values at stated Isozyme (nM) δ
Label criterion met when IC50 is strictly below 10 nM; otherwise label criterion not met.

As a guide, the following entries are already answered.
In: A record lists CC(C)NC(=O)CCCC#Cc1cccc2nc(Cn3nc(-c4ccc(O)cc4)c4c(N)ncnc43)n(Cc3ccccc3Cl)c(=O)c12 [Example 86] . Is its IC50 below 10 nM?
Out: criterion not met

In: Now consider Nc1ncnc2c1c(-c1ccc(O)cc1)nn2Cc1nc2cccc(C#CCCCC(=O)N3CCCC3)c2c(=O)n1Cc1ccccc1Cl [Example 89] and answer again.
Out: criterion met

In: Now consider Nc1ncnc2c1c(-c1ccc(O)cc1)nn2Cc1nc2cccc(C#CCCCC(=O)N3CCOCC3)c2c(=O)n1Cc1ccccc1Cl [Example 5] and answer again.
Out: criterion not met

In: Now consider C#Cc1cccc2nc(Cn3nc(-c4cccc(O)c4)c4c(N)ncnc43)n(Cc3ccccc3Cl)c(=O)c12 [Example 1] and answer again.
Out: criterion met

In: Now consider C#Cc1cccc2nc(Cn3nc(-c4cccc(O)c4)c4c(N)ncnc43)n(Cc3cccc(OC)c3)c(=O)c12 [Example 15] and answer again.
Out: criterion met

New cases:
In: A record lists COCC#Cc1cccc2nc(Cn3nc(-c4cccc(O)c4)c4c(N)ncnc43)n(Cc3cccc(C(F)(F)F)c3)c(=O)c12 [Example 37] . Is its IC50 below 10 nM?
Out: criterion not met

----------
- STUDY SYSTEM: recombinant PI3 kinase γ (Homo sapiens (Human), UniProt P48736)
- EXPERIMENT DESCRIPTION: Enzyme Inhibition Assay (HTRF PI3K enzyme assay, TR-FRET)
- Assay type: biochemical
- RUN CONDITIONS: activity range; read-out: PI3 Kinase Inhibition IC50 values at stated Isozyme γ
pIC50: −log10 of the molar value.
OBSERVATION TYPE: pIC50

Some compounds with known pIC50 results, for comparison:
In: Query (compound): CN(C)C1CCN(C(=O)CCCC#Cc2cccc3nc(Cn4nc(-c5ccc(O)cc5)c5c(N)ncnc54)n(Cc4ccccc4Cl)c(=O)c23)C1 (stereo not drawn) [Example 91] ; field requested: pIC50
Out: > 7.30

In: Now consider Nc1ncnc2c1c(-c1ccc(O)cc1)nn2Cc1nc2cccc(C#CCCCC(=O)Nc3ccncc3)c2c(=O)n1Cc1ccccc1Cl [Example 79] and answer again.
Out: 6.00 to 7.30

New cases:
In: Query (compound): C#Cc1cccc2nc(Cn3nc(-c4ccc(O)cc4)c4c(N)ncnc43)n(Cc3ccc(OC)cc3F)c(=O)c12 [Example 48] ; field requested: pIC50
Out: 6.00 to 7.30

----------
- STUDY SYSTEM: recombinant PI3 kinase γ (Homo sapiens (Human), UniProt P48736)
- EXPERIMENT DESCRIPTION: Enzyme Inhibition Assay (HTRF PI3K enzyme assay, TR-FRET)
- Assay type: biochemical
- RUN CONDITIONS: activity range; read-out: PI3 Kinase Inhibition IC50 values at stated Isozyme γ
pIC50: −log10 of the molar value.
OBSERVATION TYPE: pIC50

Some compounds with known pIC50 results, for comparison:
In: Query (compound): `Nc1ncnc2c1c(-c1ccc(O)cc1)nn2Cc1nc2cccc(C#CCOc3ccccc3)c2c(=O)n1Cc1ccccc1Cl` ; field requested: pIC50
Out: > 7.30

In: Now consider `COC(=O)c1cccc(Cn2c(Cn3nc(-c4cccc(O)c4)c4c(N)ncnc43)nc3cccc(C#CCCCC(=O)N4CCOCC4)c3c2=O)c1` and answer again.
Out: > 7.30

In: Now consider `Nc1ncnc2c1c(-c1ccc(O)cc1)nn2Cc1nc2cccc(C#CCCCC(=O)N3CCCC3)c2c(=O)n1Cc1ccccc1Cl` and answer again.
Out: > 7.30

In: Now consider `C#Cc1cccc2nc(Cn3nc(-c4ccc(O)cc4)c4c(N)ncnc43)n(Cc3ccccc3C(F)(F)F)c(=O)c12` and answer again.
Out: 6.00 to 7.30

New cases:
In: Query (compound): `COCCN(CCCC#Cc1cccc2nc(Cn3nc(-c4ccc(O)cc4)c4c(N)ncnc43)n(Cc3ccccc3Cl)c(=O)c12)CCOC` ; field requested: pIC50
Out: > 7.30

In: Now consider `CN(C)C(=O)CCCC#Cc1cccc2nc(Cn3nc(-c4ccc(O)cc4)c4c(N)ncnc43)n(Cc3ccccc3Cl)c(=O)c12` and answer again.
Out: > 7.30

In: Now consider `C#Cc1cccc2nc(Cn3nc(-c4cccc(O)c4)c4c(N)ncnc43)n(Cc3cccc(S(C)(=O)=O)c3)c(=O)c12` and answer again.
Out: 6.00 to 7.30

In: Now consider `CN1CCN(C(=O)CCCC#Cc2cccc3nc(Cn4nc(-c5cccc(O)c5)c5c(N)ncnc54)n(Cc4ccccc4Cl)c(=O)c23)CC1` and answer again.
Out: > 7.30

In: Now consider `C#Cc1cccc2nc(Cn3nc(-c4ccc(O)cc4)c4c(N)ncnc43)n(Cc3ccc(F)cc3)c(=O)c12` and answer again.
Out: 6.00 to 7.30

In: Now consider `C#Cc1cccc2nc(Cn3nc(-c4ccc(O)c(F)c4)c4c(N)ncnc43)n(Cc3ccccc3Cl)c(=O)c12` and answer again.
Out: < 6.00

----------
- STUDY SYSTEM: recombinant PI3 kinase γ (Homo sapiens (Human), UniProt P48736)
- EXPERIMENT DESCRIPTION: Enzyme Inhibition Assay (HTRF PI3K enzyme assay, TR-FRET)
- Assay type: biochemical
- RUN CONDITIONS: activity range; read-out: PI3 Kinase Inhibition IC50 values at stated Isozyme γ
We begin with a simple list: items and their reported IC50.

In: What measured IC50 is associated with CN(C)CCNC(=O)CCCC#Cc1cccc2nc(Cn3nc(-c4ccc(O)cc4)c4c(N)ncnc43)n(Cc3ccccc3Cl)c(=O)c12 [Example 78] on recombinant PI3 kinase γ (Homo sapiens (Human), UniProt P48736)?
Out: < 0.05 µM

In: Now consider Nc1ncnc2c1c(-c1ccc(O)cc1)nn2Cc1nc2cccc(C#CCCCC(=O)NCCN3CCOCC3)c2c(=O)n1Cc1ccccc1Cl [Example 76] and answer again.
Out: < 0.05 µM

----------
- STUDY SYSTEM: recombinant PI3 kinase γ (Homo sapiens (Human))
- EXPERIMENT DESCRIPTION: Enzyme Inhibition Assay (HTRF PI3K enzyme assay, TR-FRET)
- Assay type: biochemical
- RUN CONDITIONS: activity range; read-out: PI3 Kinase Inhibition IC50 values at stated Isozyme γ
pIC50: −log10 of the molar value.
We begin with a simple list: items and their reported pIC50.

In: Query (compound): `C#Cc1cccc2nc(Cn3nc(-c4ccc(O)cc4)c4c(N)ncnc43)n(Cc3ccc(Cl)cc3)c(=O)c12` ; field requested: pIC50
Out: 6.00 to 7.30

In: Now consider `C#Cc1cccc2nc(Cn3nc(-c4cccc(O)c4)c4c(N)ncnc43)n(Cc3cccc(Cl)c3)c(=O)c12` and answer again.
Out: 6.00 to 7.30

New cases:
In: Query (compound): `C#Cc1cccc2nc(Cn3nc(-c4cccc(O)c4)c4c(N)ncnc43)n(Cc3cccc(C(F)(F)F)c3)c(=O)c12` ; field requested: pIC50
Out: < 6.00

----------
We begin with a simple list: items and their reported pIC50.
- STUDY SYSTEM: recombinant PI3 kinase γ (Homo sapiens (Human))
- EXPERIMENT DESCRIPTION: Enzyme Inhibition Assay (HTRF PI3K enzyme assay, TR-FRET)
- Type: biochemical
- RUN CONDITIONS: activity range; read-out: PI3 Kinase Inhibition IC50 values at stated Isozyme γ
pIC50: −log10 of the molar value.

In: Query (compound): C#Cc1cccc2nc(Cn3nc(-c4ccc(O)cc4)c4c(N)ncnc43)n(Cc3cc(C)on3)c(=O)c12 [Example 32] ; field requested: pIC50
Out: 6.00 to 7.30

New cases:
In: Query (compound): C#Cc1cccc2nc(Cn3nc(-c4ccc(O)cc4)c4c(N)ncnc43)n(Cc3ccccc3Cl)c(=O)c12 [Example 9] ; field requested: pIC50
Out: 6.00 to 7.30

In: Now consider C#Cc1cccc2nc(Cn3nc(-c4ccc(O)cc4)c4c(N)ncnc43)n(Cc3ccccc3F)c(=O)c12 [Example 13] and answer again.
Out: 6.00 to 7.30
